- EXPERIMENTAL_TARGET: Gal(a1-2)Gal
- METHOD: glycan array binding signal (z-score within array); higher = stronger binding
- CONDITION_DESCRIPTION: glycan notation: IUPAC condensed, linker removed
Shown is part of a subset that was picked to be rich in the strongest signals.
Each entry below carries its reported glycan array binding signal (z-score).
Would you mind answering with just the numeric figure?

Record excerpt, results attached:
[[record]]
binder = "CFEM-PPm (Pichia pastoris), F2QPV1 (protein) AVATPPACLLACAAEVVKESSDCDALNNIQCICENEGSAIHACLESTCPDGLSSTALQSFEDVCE"
numeric_readout = -0.447

[[record]]
binder = "S100A12 (Homo sapiens), P80511 (protein) MTKLEEHLEGIVNIFHQYSVRKGHFDTLSKGELKQLLTKELANTIKNIKDKAVIDEIFQGLDANQDEQVDFQEFISLVAIALKAAHYHTHKE"
numeric_readout = 0.006


Now turn to the next binder.
input: Please indicate glycan array binding signal (z-score) recorded for NKp30 (Homo sapiens), O14931 (protein) MAWMLLLILIMVHPGSCALWVSQPPEIRTLEGSSAFLPCSFNASQGRLAIGSVTWFRDEVVPGKEVRNGTPERFGRLAPLASSRFLHDHQAELHIRDVRGHDASIYVCRVEVLGLGVGTGNGTRLVVRKEHPQLGAGTHADPEAPEAEGAPSVFLFPPKPKDTLMISRTPEVTCVVVDVSHEDPEVKFNWYVDGVEVHNAKTPREEQYNSTYRVVSVLTVLHQDWLNGKEYKCKVSNKALPAPIEKTISKAKGQPREPQVYTLPPSRDELTKNQVSLTCLVKGFYPSDIAVEWESNGQPENNYKTTPPVLDSDGSFFLYSKLTVDKSRWQQGNVFSCSVMHEALHNHYTQKSLSLSPGK
output: 1.41
